Target: LZK (Homo sapiens, UniProt O43283)
Construct: 10 nM LZK, catalytic domain, Carna Biosiences in assay buffer; purchased Carna Biosciences ('Carna Biosiences' [sic])
Sequence (O43283 168-409 limits assumed): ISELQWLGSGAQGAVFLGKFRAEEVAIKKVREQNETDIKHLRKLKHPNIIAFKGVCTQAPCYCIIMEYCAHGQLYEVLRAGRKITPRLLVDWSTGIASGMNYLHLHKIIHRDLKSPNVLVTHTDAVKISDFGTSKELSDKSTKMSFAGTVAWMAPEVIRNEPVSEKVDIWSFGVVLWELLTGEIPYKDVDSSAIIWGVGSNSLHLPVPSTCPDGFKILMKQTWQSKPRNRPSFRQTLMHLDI
Assay: LZK biochemical assay (TR-FRET, MKK7 phosphorylation)

compound	test-system	IC50 / nM
Nc1nc2c(-c3ccn(CC(F)(F)F)c(=O)c3)cc(-c3cnn(C(c4ccc(C(F)(F)F)nc4)C4CCOCC4)c3)cn2n1 (stereo not drawn) [II-175]	LZK (Homo sapiens, UniProt O43283)	13
N#CCC(n1cc(-c2cc(-c3cnn(Cc4ccccc4)c3)cc3nc(N)nn23)cn1)C(F)(F)F (stereo not drawn)	LZK (Homo sapiens, UniProt O43283)	150
Nc1nc2c(-c3cccc(S(=O)(=O)C(F)(F)F)c3)cc(-c3cnn(C(c4ccc(C(F)(F)F)nc4)C4CCOCC4)c3)cn2n1 (single isomer, unassigned) [II-20]	LZK (Homo sapiens, UniProt O43283)	140
Nc1nc2cc(-c3cnn(C(c4ccc(C(F)(F)F)nc4)C4CCOCC4)c3)cc(-c3ccc(=O)n(C(F)F)c3)n2n1 (single isomer, unassigned) [II-183]	LZK (Homo sapiens, UniProt O43283)	19
CC(C)(O)c1cccc(-c2cc(-c3cnn(C(c4ccc(C(F)(F)F)nc4)C4CCOCC4)c3)cn3nc(N)nc23)c1 (single isomer, unassigned) [II-12]	LZK (Homo sapiens, UniProt O43283)	1.2
Nc1nc2c(-c3ccc(=O)n(CC(F)(F)F)c3)cc(-c3cnn(C(c4ccc(C(F)(F)F)nc4)C4CCOCC4)c3)cn2n1 (stereo not drawn) [II-160]	LZK (Homo sapiens, UniProt O43283)	5.9
